Every entry's value here was drawn from patent US10125157B2.

- Tested on: MCF-7
- assay-explanation: In vitro cytotoxicity, MTS cell viability test, 72 h
- Type: cell-based
- test-context: Homo sapiens, MCF7, 72 h
Can you tell me pIC50 for the items I'm about to list?
One number for each entry, as −log10 of the molar value.

molecule	reported-value
CC(C)=CCC/C(C)=C/CC/C(C)=C/CC/C=C(\C)CC/C=C(\C)CCCOC1CCOP(=O)(NCCCl)N1CCCl (centres unmarked) [Ifosfamide SQ]	4.36

The record that follows has no pIC50 shown yet.
Problem: State its pIC50 for this molecule: CC(C)=CCC/C(C)=C/CC/C(C)=C/CC/C=C(\C)CC/C=C(\C)CCC(=O)NCCSC1CCOP(=O)(NCCCl)N1CCCl (centres unmarked) [Ifosfamide-thio-SQ]
Result: 4.96
